Consider the following compounds; for each one, report its Maximum % activity.
Target: F508delCFTR (Homo sapiens, UniProt P13569, DEL508-508)
Construct: expressed in transfected cells; host or cells: CFBE41o- (human lung derived epithelial cell line), doxycycline-inducible
Sequence (P13569 with tags, fused parts or gaps DEL508-508): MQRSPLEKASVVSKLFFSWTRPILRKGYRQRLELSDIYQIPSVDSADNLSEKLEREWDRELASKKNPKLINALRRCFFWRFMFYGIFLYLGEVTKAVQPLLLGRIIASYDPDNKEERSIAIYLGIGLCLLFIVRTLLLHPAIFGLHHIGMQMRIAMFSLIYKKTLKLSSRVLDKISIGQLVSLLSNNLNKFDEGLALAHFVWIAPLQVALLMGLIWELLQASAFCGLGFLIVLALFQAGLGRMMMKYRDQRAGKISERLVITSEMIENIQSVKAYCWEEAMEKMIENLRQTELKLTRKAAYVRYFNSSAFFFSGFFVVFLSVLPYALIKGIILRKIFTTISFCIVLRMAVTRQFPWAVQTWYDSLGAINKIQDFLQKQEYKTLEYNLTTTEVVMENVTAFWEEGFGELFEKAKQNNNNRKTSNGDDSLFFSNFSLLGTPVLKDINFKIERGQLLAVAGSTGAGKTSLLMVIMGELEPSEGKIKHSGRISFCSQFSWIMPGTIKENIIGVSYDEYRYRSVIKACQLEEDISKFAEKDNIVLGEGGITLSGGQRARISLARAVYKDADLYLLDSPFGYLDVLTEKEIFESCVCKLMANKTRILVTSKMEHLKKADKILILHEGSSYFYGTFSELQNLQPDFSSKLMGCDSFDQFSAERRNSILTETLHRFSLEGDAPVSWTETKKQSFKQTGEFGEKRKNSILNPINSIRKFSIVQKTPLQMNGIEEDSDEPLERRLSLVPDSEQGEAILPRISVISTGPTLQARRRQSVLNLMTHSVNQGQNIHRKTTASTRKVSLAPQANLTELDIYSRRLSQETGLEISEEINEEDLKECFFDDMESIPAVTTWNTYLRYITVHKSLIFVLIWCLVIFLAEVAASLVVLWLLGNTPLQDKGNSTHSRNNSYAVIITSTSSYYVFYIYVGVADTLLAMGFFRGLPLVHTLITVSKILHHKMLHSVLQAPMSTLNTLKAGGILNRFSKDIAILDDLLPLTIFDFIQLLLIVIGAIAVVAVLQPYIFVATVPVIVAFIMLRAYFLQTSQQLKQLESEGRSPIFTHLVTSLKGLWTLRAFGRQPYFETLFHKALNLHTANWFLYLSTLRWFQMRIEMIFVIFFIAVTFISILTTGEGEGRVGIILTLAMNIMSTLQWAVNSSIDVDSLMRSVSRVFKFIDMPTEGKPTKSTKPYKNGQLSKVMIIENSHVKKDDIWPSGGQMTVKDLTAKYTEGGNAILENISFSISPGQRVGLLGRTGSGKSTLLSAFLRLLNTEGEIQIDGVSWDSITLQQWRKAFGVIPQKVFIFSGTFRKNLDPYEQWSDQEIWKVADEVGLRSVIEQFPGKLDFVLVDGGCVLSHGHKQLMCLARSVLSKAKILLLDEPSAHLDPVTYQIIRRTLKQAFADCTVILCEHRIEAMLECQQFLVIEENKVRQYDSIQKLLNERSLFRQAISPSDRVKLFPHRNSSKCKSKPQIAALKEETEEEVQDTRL
Test: Cell Surface Expression-Horse Radish Peroxidase (CSE-HRP) assay
Assay type: cell-based
Settings: CFBE41o-F508delCFTR-HRP cells; maximum at any tested concentration, normalized to on-plate positive control (3 μM)
Description: Cell Surface Expression-Horse Radish Peroxidase (CSE-HRP) Assay: A cellular assay for measuring the F508delCFTR cell surface expression after correction with test compounds was developed in human lung derived epithelial cell line (CFBE41o-) (Veit G et al, (2012) Mol Biol Cell. 23(21): 4188-4202). […] The raw counts from the experiment are analyzed using Accelrys® Assay Explorer v3.3. […]
Give the value, in units of %, as a plain number.

// Input: COc1ccc2c(c1)O[C@@H](c1cccc(C(=O)O)c1)C[C@H]2NC(=O)C(C)(C)Oc1ccc(Cl)cc1 [Example 45] . Output its Maximum % activity only. 15.3

// Input: COc1ccc2c(c1)O[C@@H](c1ccc(C(=O)O)cc1)C[C@H]2NC(=O)[C@@]1(C)CCc2cc(C)ccc21 (single isomer, unassigned) [Example 9] . Output its Maximum % activity only. 95.5

// Input: COc1ccc2c(c1)O[C@@H](c1ccc(C(=O)O)cc1)C[C@H]2NC(=O)C1(c2ccc(C)c(OC)c2)CC1 [Example 86] . Output its Maximum % activity only. 57.9

// Input: COc1ccc2c(c1)O[C@@H](c1ccc(C(=O)O)cc1)C[C@H]2NC(=O)C1(c2ccc(F)cc2)CC1 [Example 84] . Output its Maximum % activity only. 56.2

// Input: COc1ccc2c(c1)O[C@@H](c1ccc(C(=O)O)cc1)C[C@H]2NC(=O)C1(c2ccccc2)CC1 [Example 75] . Output its Maximum % activity only. 37.9

// Input: COc1ccc2c(c1)CC[C@@]2(C)C(=O)N[C@@H]1C[C@H](c2cccc(C(=O)O)c2)Oc2cc(OC)ccc21 [Example 33] . Output its Maximum % activity only. 25.9

// Input: COc1ccc2c(c1)O[C@@H](c1ccc(C(=O)O)cc1)C[C@H]2NC(=O)C(C)(C)Oc1cccc(Cl)c1 [Example 73] . Output its Maximum % activity only. 29.0

// Input: COc1cccc2c1[C@](C)(C(=O)N[C@@H]1C[C@H](c3cccc(C(=O)O)c3)Oc3ccccc31)CC2 [Example 50] . Output its Maximum % activity only. 4.9

// Input: COc1ccc2c(c1)OCC2(C)C(=O)N[C@@H]1C[C@H](c2cccc(C(=O)O)c2)Oc2ccccc21 (some centres unmarked) [Example 56] . Output its Maximum % activity only. 71.4

// Input: Cc1ccccc1C(C)(C)C(=O)N[C@@H]1C[C@H](c2cccc(C(=O)O)c2)Oc2ccccc21 [Example 49] . Output its Maximum % activity only. 3.5

// Input: CC1(C(=O)N[C@@H]2C[C@H](c3cccc(C(=O)O)c3)Oc3ccccc32)CCc2cc(OC(F)(F)F)ccc21 (some centres unmarked) [Example 55] . Output its Maximum % activity only. 49.9

// Input: COc1ccc2c(c1)O[C@@H](c1ccc(C(=O)O)cc1)C[C@H]2NC(=O)C(C)(C)Oc1ccc(F)cc1 [Example 118] . Output its Maximum % activity only. 16.3

// Input: COc1ccc2c(c1)O[C@@H](c1ccc(C(=O)O)cc1)C[C@H]2NC(=O)C1(c2ccccc2)CCCC1 [Example 97] . Output its Maximum % activity only. 2.5

// Input: COc1ccc2c(c1)O[C@@H](c1ccc(C(=O)O)cc1)C[C@H]2NC(=O)C1(c2ccc(Cl)cc2)CCCC1 [Example 98] . Output its Maximum % activity only. 13.0

// Input: COC(=O)c1cccc([C@H]2C[C@@H](NC(=O)[C@@]3(C)CCc4cc(OC)ccc43)c3ccc(OC)cc3O2)c1 [Example 31] . Output its Maximum % activity only. 63.6

// Input: C[C@]1(C(=O)N[C@@H]2C[C@H](c3ccc(C(=O)O)cc3)Oc3ccccc32)CCc2cc(Cl)ccc2O1 [Example 60] . Output its Maximum % activity only. 2.3

// Input: COc1ccc2c(c1)O[C@@H](c1ccc(C(=O)O)cc1)C[C@H]2NC(=O)C1(c2ccc(OC(F)(F)F)cc2)CCC1 [Example 70] . Output its Maximum % activity only. 28.0
